- System: Kinesin-like protein KIF11 (Homo sapiens)
- Sequence (P52732 whole entry): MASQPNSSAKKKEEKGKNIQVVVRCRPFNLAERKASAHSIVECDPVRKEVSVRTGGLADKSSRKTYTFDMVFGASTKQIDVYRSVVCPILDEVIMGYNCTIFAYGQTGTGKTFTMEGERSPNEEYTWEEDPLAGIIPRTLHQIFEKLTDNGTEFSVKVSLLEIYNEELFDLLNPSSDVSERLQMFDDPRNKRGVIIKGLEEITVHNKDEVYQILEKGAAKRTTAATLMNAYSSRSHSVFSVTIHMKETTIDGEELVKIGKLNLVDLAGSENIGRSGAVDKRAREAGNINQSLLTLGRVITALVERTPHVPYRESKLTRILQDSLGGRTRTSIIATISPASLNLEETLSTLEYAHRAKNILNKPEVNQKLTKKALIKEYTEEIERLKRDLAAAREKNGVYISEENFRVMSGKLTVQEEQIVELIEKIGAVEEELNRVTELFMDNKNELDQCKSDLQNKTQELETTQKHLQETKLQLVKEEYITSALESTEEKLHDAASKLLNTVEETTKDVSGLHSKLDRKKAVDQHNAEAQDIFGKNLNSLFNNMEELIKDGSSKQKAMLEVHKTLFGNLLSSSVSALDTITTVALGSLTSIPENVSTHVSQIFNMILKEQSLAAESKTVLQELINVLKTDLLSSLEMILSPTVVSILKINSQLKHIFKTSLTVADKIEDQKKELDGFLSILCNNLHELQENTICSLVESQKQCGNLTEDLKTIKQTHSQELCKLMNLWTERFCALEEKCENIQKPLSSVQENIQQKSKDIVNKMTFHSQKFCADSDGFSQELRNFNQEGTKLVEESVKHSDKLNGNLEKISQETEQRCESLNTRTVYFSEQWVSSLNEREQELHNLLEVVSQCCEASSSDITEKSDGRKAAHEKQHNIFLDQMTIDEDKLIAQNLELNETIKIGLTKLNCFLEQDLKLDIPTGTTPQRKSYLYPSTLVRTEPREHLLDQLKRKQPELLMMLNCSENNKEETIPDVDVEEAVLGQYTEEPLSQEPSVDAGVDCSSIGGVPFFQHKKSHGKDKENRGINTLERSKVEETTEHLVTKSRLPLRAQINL
- Protocol Description: Inhibition of human Eg5 expressed in Escherichia coli assessed as microtubule-activated ATPase activity by spectrophotometry
Value Kind: pIC50
pIC50 here: minus log base 10 of the concentration, concentration in moles per litre.

Solved cases below.
CCCN1CCc2c([nH]c3ccc(Cl)cc23)C1c1cccc(O)c1 (racemic) = 6.77
O=C(NCCO)C1Cc2c([nH]c3ccccc23)C(c2cccc(O)c2)N1 (racemic) = 6.54
CCC(c1nc2cc(Cl)ccc2c(=O)n1Cc1ccccc1)N(CCCN(C)C)C(=O)c1ccc(Br)cc1 (stereo not drawn) = 7.31

## Task I have this molecule here, Cc1ccc2[nH]c3c(c2c1)CCN(C(=O)C(C)C)C3c1c[nH]c2ccccc12 (racemic) , and I need its recorded pIC50.
## Result 6.67

## Task May I ask what pIC50 has been recorded for CCOC(=O)C1Cc2c([nH]c3ccccc23)C(c2cccc(O)c2)N1C(=O)CC (racemic) ?
## Result 7.12

## Task Request the reported pIC50 associated with CCCC(=O)N1C(C(=O)OCC)Cc2c([nH]c3ccccc23)C1c1cccc(O)c1 (racemic)
## Result 6.65

## Task Fill blank: measured pIC50 of the molecule CCOC(=O)C1Cc2c([nH]c3ccccc23)C(c2cccc(O)c2)N1C(=O)C(C)C (racemic) is ____.
## Result 6.42

## Task Which pIC50 is reported for this molecule? Oc1cccc(C2c3[nH]c4ccc(Cl)cc4c3CCN2Cc2ccccc2)c1 (racemic)
## Result 6.15

## Task Name the reported pIC50 value associated with the molecule Cc1ccc2[nH]c3c(c2c1)CCN(CCCCN)C3c1cccc(O)c1 (racemic)
## Result 6.34

## Task Name the recorded pIC50 for CCCC(=O)N1CCc2c([nH]c3ccc(Cl)cc23)C1c1c[nH]c2ccccc12 (racemic) .
## Result 6.79

## Task Reported pIC50 for Cc1ccc2[nH]c3c(c2c1)CCN(CCCN)C3c1cccc(O)c1 (racemic) : what is it?
## Result 7.08

## Task Given the entry NCCNC(=O)C1Cc2c([nH]c3ccccc23)C(c2cccc(O)c2)N1 (racemic) , report its measured pIC50.
## Result 7.19

---

Listing of entries alongside the reported pIC50.
- System: PC-3
- Protocol Description: Antiproliferative activity against human PC3 cells after 48 hrs by SRB assay
- Test Context: PC-3, 48 h
# log scale: pIC50 equals minus log10 of the concentration in mol/L

Nc1ccc(C(=O)N2CCc3c([nH]c4ccc(Cl)cc34)C2c2cccc(O)c2)cc1 (racemic) = 5.14
NCCC(=O)N1CCc2c([nH]c3ccc(Cl)cc23)C1c1c[nH]c2ccccc12 (racemic) = 5.81
NCCC(=O)N1CCc2c([nH]c3c(Cl)cccc23)C1c1cccc(O)c1 (racemic) = 5.89

Moving on to another compound below.
## Task So what pIC50 did CCCC(=O)N1CCc2c([nH]c3ccc(Cl)cc23)C1c1c[nH]c2ccccc12 (racemic) get with PC-3?
## Result 5.14

---

- System: Kinesin-like protein KIF11 (Homo sapiens)
- Protocol Description: Inhibition of human Eg5 expressed in Escherichia coli assessed as microtubule-activated ATPase activity by spectrophotometry
Value Kind: IC50 (nM)
Express the result in nM but write the number alone.

NCCN1CCc2c([nH]c3ccc(Cl)cc23)C1c1cccc(O)c1 (racemic) = 7
Cc1ccc2[nH]c3c(c2c1)CCN(CCN)C3c1cccc(O)c1 (racemic) = 237
Nc1ccc(C(=O)N2CCc3c([nH]c4ccc(Cl)cc34)C2c2cccc(O)c2)cc1 (racemic) = 76

## Task Entry under review: NCCCCN1CCc2c([nH]c3ccc(Cl)cc23)C1c1cccc(O)c1 (racemic) . Reported IC50?
## Result 347

## Task If you can, please state the reported IC50 value of NCCC(=O)N1CCc2c([nH]c3ccc(Cl)cc23)C1c1c[nH]c2ccccc12 (racemic) .
## Result 43

## Task Quick one: IC50 for CN1CCc2c([nH]c3ccc(Cl)cc23)C1c1cccc(O)c1 (racemic) ?
## Result 664

## Task Using the record for CC(=O)N1CCc2c([nH]c3ccc(C)cc23)C1c1c[nH]c2ccccc12 (racemic) , report its IC50.
## Result 51

## Task Which IC50 value is on record for NCCC(=O)N1CCc2c([nH]c3c(Cl)cccc23)C1c1cccc(O)c1 (racemic) ?
## Result 40

## Task What IC50 value was documented for this compound, CCCC(=O)N1C(C(=O)O)Cc2c([nH]c3ccccc23)C1c1cccc(O)c1 (racemic) ?
## Result 3450

---

- System: AGS
- Protocol Description: Antiproliferative activity against human AGS cells after 48 hrs by SRB assay
Value Kind: IC50 (µM)
State the answer as a number, implicitly in µM.

Nc1ccc(C(=O)N2CCc3c([nH]c4ccc(Cl)cc34)C2c2cccc(O)c2)cc1 (racemic) = 6.07
NCCC(=O)N1CCc2c([nH]c3ccc(Cl)cc23)C1c1c[nH]c2ccccc12 (racemic) = 6.16
CN1CCc2c([nH]c3ccc(Cl)cc23)C1c1cccc(O)c1 (racemic) = 0.75
NCCC(=O)N1CCc2c([nH]c3c(Cl)cccc23)C1c1cccc(O)c1 (racemic) = 1.31

Next compound, please.
## Task Param readout= IC50; system= AGS; entry= CC(C)Oc1cccc(C2c3[nH]c4ccc(Cl)cc4c3CCN2CCN)c1 (racemic) ; returns value.
## Result 8.39

---

- System: AGS
- Protocol Description: Antiproliferative activity against human AGS cells after 48 hrs by SRB assay
Form field: pIC50 (one value per entry).
By convention, pIC50 is the negative base-10 log of a molar concentration.

# count of solved cases: 2
Cc1ccc2[nH]c3c(c2c1)CCN(C(=O)c1ccc(N)cc1)C3c1cccc(O)c1 (racemic) = 5.05
CCC(c1nc2cc(Cl)ccc2c(=O)n1Cc1ccccc1)N(CCCN(C)C)C(=O)c1ccc(Br)cc1 (stereo not drawn) [CK0106023] = 5.29

Please find the next compound below.
## Task Entry CCCC(=O)N1CCc2c([nH]c3ccc(Cl)cc23)C1c1c[nH]c2ccccc12 (racemic) has what pIC50?
## Result 5.15

---

- System: Kinesin-like protein KIF11 (Homo sapiens)
- Protocol Description: Inhibition of human Eg5 expressed in Escherichia coli assessed as microtubule-activated ATPase activity by spectrophotometry
Value Kind: IC50 (µM)
Write it as a number; the unit µM goes unstated.

Here's what some known entries look like.
Cc1ccc2[nH]c3c(c2c1)CCN(Cc1ccccc1)C3c1cccc(O)c1 (racemic) = 12.4
CC(N)C(=O)N1CCc2c([nH]c3ccc(Cl)cc23)C1c1cccc(O)c1 (stereo unspecified) = 0.483
NCCCN1CCc2c([nH]c3ccc(Cl)cc23)C1c1cccc(O)c1 (racemic) = 0.204

## Task Need IC50 of CC(C)C(=O)N1CCc2c([nH]c3ccc(Cl)cc23)C1c1c[nH]c2ccccc12 (racemic) , thanks.
## Result 1.7

## Task Looking for the measured IC50 of CC(=O)N1CCc2c([nH]c3ccc(Cl)cc23)C1c1c[nH]c2ccccc12 (racemic) , can you help?
## Result 0.337
